Attribution: paper PMC6269910

Swelling in thickness ± SEM values for the molecules below.
tested on: carrageenan-induced hind paw edema; experiment: Carrageenan-induced hind paw edema model; type: in vivo, mice; settings: 100 mg/kg per os; 90 min
Endpoint label: Swelling in thickness ± SEM

>>> df
                              smiles_record                  result
0  Cc1ccc(-c2cc(C(F)(F)F)nn2-c2ccc(S(=O)(=O)NC(=S)Nc3ccc([N+](=O)[O-])cc3)cc2)cc1  95.9 ± 10.2 × 10^−2 mm
1  Cc1ccc(-c2cc(C(F)(F)F)nn2-c2ccc(S(=O)(=O)/N=C3\SCC(=O)N3c3ccc([N+](=O)[O-])cc3)cc2)cc1  73.2 ± 11.1 × 10^−2 mm
2  CCNC(=S)NS(=O)(=O)c1ccc(-n2nc(C(F)(F)F)cc2-c2ccc(C)cc2)cc1   58.1 ± 6.6 × 10^−2 mm
3  Cc1ccc(-c2cc(C(F)(F)F)nn2-c2ccc(S(=O)(=O)NC(=S)Nc3ccc(C(F)(F)F)cc3)cc2)cc1   88.4 ± 2.6 × 10^−2 mm
4  Cc1ccc(-c2cc(C(F)(F)F)nn2-c2ccc(S(=O)(=O)/N=C3\SCC(=O)N3Cc3ccccc3)cc2)cc1   83.4 ± 8.7 × 10^−2 mm
